Assay system: Rlig1-AMP (Homo sapiens)
Construct: made in house; host or cells: E. coli BL21 (DE3), pET15b-Rlig1
Sequence (Q8N999 whole entry): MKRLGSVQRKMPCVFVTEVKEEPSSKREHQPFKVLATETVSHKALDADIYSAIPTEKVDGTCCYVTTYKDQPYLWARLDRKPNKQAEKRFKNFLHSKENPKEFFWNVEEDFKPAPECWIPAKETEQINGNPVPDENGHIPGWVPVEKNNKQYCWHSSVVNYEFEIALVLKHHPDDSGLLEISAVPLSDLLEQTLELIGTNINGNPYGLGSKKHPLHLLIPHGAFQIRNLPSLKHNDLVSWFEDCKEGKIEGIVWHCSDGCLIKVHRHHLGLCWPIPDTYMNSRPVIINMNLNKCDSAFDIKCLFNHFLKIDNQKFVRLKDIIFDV
Procedure details: FRET-based high-throughput screening of inhibitors for Rlig1-AMP
Format: biochemical
Test context: sheet HTS hits; with enzyme
# maps each entry to its Raw data [w Enyzm]
Output spec: single numeric token, no unit.

CC1=NN(c2ccc(C)c(C)c2)C(=O)/C1=N\Nc1cccc(-c2cccc(C(=O)O)c2)c1O.NCCO.NCCO    3683

Give the measured Raw data [w Enyzm] of CO[C@H]1/C=C/O[C@@]2(C)Oc3c(C)c(O)c4c(O)c(c(/C=N/N5CCN(C)CC5)c(O)c4c3C2=O)NC(=O)/C(C)=C\C=C\[C@H](C)[C@H](O)[C@@H](C)[C@@H](O)[C@@H](C)[C@H](OC(C)=O)[C@@H]1C .
2212

Give the measured Raw data [w Enyzm] of CN(C)C/C=C/C(=O)Nc1ccc(C(=O)Nc2cccc(Nc3cc(-c4c[nH]c5ccccc45)ncn3)c2)cc1 [THZ-P1-2] .
5306

Give the measured Raw data [w Enyzm] of C#CCOCCOCCOCCOCC#C .
9208

Give the measured Raw data [w Enyzm] of C/C1=C2/[N-][C@H]([C@H](CC(N)=O)[C@@]2(C)CCC(=O)NC[C@H](C)OP(=O)([O-])O[C@H]2[C@@H](O)[C@@H](n3cnc4cc(C)c(C)cc43)O[C@@H]2CO)[C@]2(C)N=C(/C(C)=C3N=C(/C=C4N=C1[C@@H](CCC(N)=O)C\4(C)C)[C@@H](CCC(N)=O)[C@]\3(C)CC(N)=O)[C@@H](CCC(N)=O)[C@]2(C)CC(N)=O.[CH3-].[Co+3] .
4140

Give the measured Raw data [w Enyzm] of COC(=O)c1cc(OC)c2c(c1-c1c(C(=O)OC)cc(OC)c3c1OCO3)OCO2 [Bifendate] .
9076

Give the measured Raw data [w Enyzm] of Cc1ccc2c(-c3nc(Nc4cc(CN5C[C@@H](C)N[C@@H](C)C5)cc(C5CC5)c4)ncc3Cl)c[nH]c2c1 .
6467

Give the measured Raw data [w Enyzm] of O=C1O[C@@H]2[C@@H](O)[C@H](O)[C@@H](CO)O[C@H]2c2c1cc(O)c(O)c2O .
9099
